Values were extracted from the supplement of paper PMC10567573.

protein stability index: recorded values
B1: CCND1 (parent)
chain: IRRAYPDANLLNDRVLRAMLKAEE

- Variants of: B1
- measurement-protocol: protein stability index of a GFP-peptide fusion (GPS, HEK-293T) (PSI 1-6); higher = more stable;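 note: lentivirally expressed fusions sorted by FACS into six bins by GFP to DsRed ratio, PSI derived from sequencing read proportions per bin multiplied by bin number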
- recorded-conditions: c terminus: a fixed tail appended

- input-sequence: "IRRAYPDANLLNDRVLRNMLKAEE [A18N]"
  protein stability index: 3.06
- input-sequence: "IRRAYPDANLLNDRVKRAMLKAEE [L16K]"
  protein stability index: 3.67
- input-sequence: "IRRCYPDANLLNDRVLRAMLKAEE [A4C]"
  protein stability index: 2.17
- input-sequence: "IRRAYPDANLLNDRVLRAMLKAKE [E23K]"
  protein stability index: 2.75
- input-sequence: "IRRAYPDANLLNDLVLRAMLKAEE [R14L]"
  protein stability index: 1.99
- input-sequence: "IRRAYDDANLLNDRVLRAMLKAEE [P6D]"
  protein stability index: 1.43
- input-sequence: "IRRAYPDANLTNDRVLRAMLKAEE [L11T]"
  protein stability index: 3.04
- input-sequence: "IRRAYPDANLLNDRVLRAMLKVEE [A22V]"
  protein stability index: 2.21
- input-sequence: "IRRAYPDANLLNDRVLRKMLKAEE [A18K]"
  protein stability index: 3.02
- input-sequence: "IRRAYPDANLLNDHVLRAMLKAEE [R14H]"
  protein stability index: 1.74
- input-sequence: "IRRAYPDANLLQDRVLRAMLKAEE [N12Q]"
  protein stability index: 2.39
